Reference source for all entries: patent US20240246964A1

target: human PD-L1 (Homo sapiens (Human), UniProt Q9NZQ7); assay: T cell activation luciferase reporter cell culture system (T Cell Activation Assay); type: cell-based; conditions: luciferase reporter assay; PD-L1 aAPC/CHO-K1 cells with PD-1 effector Jurkat T cells
Sequence (Q9NZQ7 19-290): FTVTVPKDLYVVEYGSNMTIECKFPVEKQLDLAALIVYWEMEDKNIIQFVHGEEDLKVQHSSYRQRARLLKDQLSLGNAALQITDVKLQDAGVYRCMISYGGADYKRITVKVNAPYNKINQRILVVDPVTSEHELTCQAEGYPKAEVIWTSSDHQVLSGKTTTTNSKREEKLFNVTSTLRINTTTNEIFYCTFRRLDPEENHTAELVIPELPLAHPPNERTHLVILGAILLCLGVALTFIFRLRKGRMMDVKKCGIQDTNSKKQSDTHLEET
Recorded endpoint: EC50 (nM)
One number for each entry, in nM.

Compound	EC50 [nM]
COc1nc(-c2cccc(-c3ccnc(-c4cc(OC)c5nc(CN6CC(C)(O)C6)nn5c4)c3Cl)c2Cl)ccc1CNC[C@@H]1CCC(=O)N1 [Example 259]	58.6
COc1cc(-c2nccc(-c3cccc(-c4ccc(CNC[C@@H]5CCC(=O)N5)c(OC)n4)c3Cl)c2Cl)cc2c1CN(CCCF)CC2 [Cmpd 63]	40.8

Here's the next entry for you.
So what does the record say about EC50 for COc1cc(-c2nccc(-c3cccc(-c4ccc(CNC[C@@H]5CCC(=O)N5)c(OC)n4)c3Cl)c2Cl)ccc1C1=NCCN1 [Compound 179] ?
30.8

----------
Answer each item with its documented EC50.
biological target: human PD-L1 (Homo sapiens (Human)); assay: T cell activation luciferase reporter cell culture system (T Cell Activation Assay); format: cell-based; conditions: luciferase reporter assay; PD-L1 aAPC/CHO-K1 cells with PD-1 effector Jurkat T cells
Give bare numbers, in nM.

// worked examples, EC50 included
COc1cc(-c2nccc(-c3cccc(-c4ccc(CNC5CCN(C(C)=O)CC5)c(OC)n4)c3Cl)c2Cl)ccc1CN1CC[C@H](C(=O)OC(C)C)C1 187
COc1nc(-c2cccc(-c3ccnc(-c4cc(OC)c5nc(CNCCCF)nn5c4)c3Cl)c2Cl)ccc1CNC1CCN(C(C)=O)CC1 130
COc1cc(-c2nccc(-c3cccc(-c4ccc(CNC5CCN(C(=O)CO)CC5)c(OC)n4)c3Cl)c2Cl)ccc1CN[C@H]1CC[C@H](O)CC1 31.8

Could you report EC50 for every entry in the following list?
1. COCC(=O)N1CCC(NCc2ccc(-c3cccc(-c4ccnc(-c5ccc(CNC6CCN(C(C)=O)CC6)c(OC)c5)c4Cl)c3Cl)nc2OC)CC1
2. COc1cc(-c2nccc(-c3cccc(-c4ccc(CN5CC6(CNC(=O)C6)C5)c(OC)n4)c3Cl)c2Cl)cnc1CNC1CCOCC1
3. COc1cc(-c2nccc(-c3cccc(-c4ccc(CNC[C@@H]5CCC(=O)N5)c(OC)n4)c3Cl)c2Cl)cc2c1CN(CCC1CCNCC1)CC2

1: 15.9; 2: 75.9; 3: 71.9

----------
Answer each item with its documented pEC50.
target: human PD-L1 (Homo sapiens (Human), UniProt Q9NZQ7); assay: T cell activation luciferase reporter cell culture system (T Cell Activation Assay); format: cell-based; conditions: luciferase reporter assay; PD-L1 aAPC/CHO-K1 cells with PD-1 effector Jurkat T cells
Give bare numbers, as −log10 of the molar value.

Could you report pEC50 for every entry in the following list?
1. COc1nc(-c2cccc(-c3ccnc(-c4ccc5c(c4)CCC[C@H]5NC[C@@H]4CCC(=O)N4)c3Cl)c2Cl)ccc1CNC[C@@H]1CCC(=O)N1
2. COc1cc(-c2nccc(-c3cccc(-c4ccc(CN5CC6(CNC(=O)C6)C5)c(OC)n4)c3Cl)c2Cl)cc2c1CN(CC1(C(=O)O)CC1)CC2
3. COc1cc(-c2ccnc(-c3cccc(-c4ccc(CNC5CCN(C(C)=O)CC5)c(OC)n4)c3Cl)c2Cl)ccc1CNC1CCN(C(C)=O)CC1

[7.71, 6.37, 6.52]
